- EXPERIMENTAL_DETAILS: Quantitative High-Throughput drug screen in 47 multiple myeloma cell lines against the NCATS MIPE library collection: XG1_PLB cell viability assay (AID 1919866); further: nearly all actives have a fitted effect of over 35% in size; further: potency means the concentration at half of the fitted maximal effect
- EXPERIMENTAL_SETUP: CellTiter-Glo ATP, 48 h; series mostly up to 45.8 µM
- Text: PI: Beverly A. Mock Ph.D. Laboratory of Cancer Biology and Genetics, Center for Cancer Research, National Cancer Institute, National Institute of Health, Bethesda, Maryland […] 5; Detector; 425V; Luminescence; Viewlux PerkinElmer. […] 1. […] Briefly, the corresponding myeloma cell lines were screened in 1,536-well plates with 500 cells, 5-uL per well for inhibition of cell viability (assessed by measuring ATP levels with CellTiterGlo). […]
Results filed as inconclusive are left out. The source made the active and inactive calls. The call rests on the fitted dose curve; in most records, active means well fitted cell-killing curve with a large enough effect; inconclusive means small, poorly fitted or top-dose-only effect, or effect the other way; inactive means no such curve, though single readings can be large or run the other way.
QUANTITY: Potency

Take a look at these entries with their results.
# CPD_SMILES, Potency
records = [
    ("N#CC(=C(N)Sc1ccc(N)cc1)c1ccccc1C(F)(F)F", "2960 nM (active)"),
    ("CCN(CC)CCCCNc1ncc2c(n1)N(C)C(=O)N(c1c(Cl)c(OC)cc(OC)c1Cl)C2", "13200 nM (active)"),
    ("CC(C)(O)[C@H]1CC[C@@](C)([C@H]2[C@@H](O)C[C@@]3(C)[C@@H]4C[C@H](O[C@@H]5O[C@H](CO)[C@@H](O)[C@H](O)[C@@H]5O)[C@H]5C(C)(C)[C@@H](O[C@@H]6OC[C@@H](O)[C@H](O)[C@@H]6O)CC[C@@]56C[C@@]46CC[C@]23C)O1", "inactive"),
    ("CC(=O)OC[C@@H]1O[C@@H](n2ccc(=O)[nH]c2=O)[C@H](OC(C)=O)[C@H]1OC(C)=O", "inactive"),
    ("NC(=O)N1CCC(CC(=O)N2CCC([C@H]3c4ncc(Br)cc4CCc4cc(Cl)cc(Br)c43)CC2)CC1", "5260 nM (active)"),
]

// each compound listed below needs its Potency
1. Nc1ncn([C@@H]2O[C@H](CO)[C@@H](O)[C@@H]2O)c(=O)n1
2. COc1cccc2c1C(=O)c1c(O)c3c(c(O)c1C2=O)C[C@@](O)(C(=O)CO)C[C@@H]3O[C@H]1C[C@H](N)[C@@H](O)[C@H](C)O1

2960 nM (active)
526 nM (active)

###

- System: WaGa
- EXPERIMENTAL_DETAILS: qHTS assay to identify novel small-molecules to repurpose for Merkel cell carcinoma treatment (AID 1296009); further: nearly all actives have a fitted effect of over 60% in size
- EXPERIMENTAL_SETUP: MCC and control cell lines, CellTiter-Glo viability, 72 h; series mostly up to 46 µM
Inconclusive results are not listed. Calls of active or inactive are those of the source. Calls follow the shape of the dose curve; as a rule, active = well fitted inhibition curve with a large enough effect; inconclusive = small, poorly fitted or top-dose-only effect; inactive = flat fitted curve, though single readings scatter.
Your answer must be one of the following: 1 (active), 0 (inactive)

Sample answers from the record:
# MOLECULE, QUALITATIVE_LABEL
measured = [
    ("NC(=O)N1CCC(CC(=O)N2CCC([C@H]3c4ncc(Br)cc4CCc4cc(Cl)cc(Br)c43)CC2)CC1", 1),
    ("O=C(C[C@@H]1CC=CCCC(=O)O[C@H](c2ccccc2)CNC1=O)NCc1ccc(Cl)cc1", 0),
    ("O=C(O)C=Cc1ccc(Cn2ccnc2)cc1", 0),
]

Identify the outcome logged in this assay for the molecule shown: `OC[C@@H](O)[C@@H](O)[C@H](O)[C@@H](O)CO`
0

Hey, what did the test say about `C[C@@]12C[C@@]3(O)O[C@@H](O1)[C@]1(COC(=O)c4ccccc4)[C@@H]3C[C@@]12O[C@@H]1O[C@H](CO)[C@@H](O)[C@H](O)[C@@H]1O` ?
0

// param item: CC(=O)C1=C(O)C=C2Oc3c(C(C)=O)c(O)c(C)c(O)c3C2(C)C1=O (centres undefined) ; yields the recorded call
0

Fill in: this test's call for `CCCNS(=O)(=O)Nc1ncnc(OCCOc2ncc(Br)cn2)c1-c1ccc(Br)cc1` is ___
0

State the result this test recorded for `O=C(NNC(=O)c1ccc(CNS(=O)(=O)c2ccc(F)c(Cl)c2)cc1)c1ccccc1` .
0

For this molecule, state the assay outcome: `CCOC(=O)[C@@H](N)Cc1ccc(-c2cc(O[C@H](c3ccc(Cl)cc3-n3ccc(C)n3)C(F)(F)F)nc(N)n2)cc1`
0

###

- EXPERIMENTAL_DETAILS: qHTS of pediatric cancer cell lines to identify multiple opportunities for drug repurposing: Primary screen for LAN-5 cells (AID 1347100)
- EXPERIMENTAL_SETUP: LAN-5 neuroblastoma viability, CellTiter-Glo luminescence, 48 h; series mostly up to 46 µM
Results filed as inconclusive are left out. Calls of active or inactive are those of the source. Calls follow the shape of the dose curve; as a rule, active = well fitted cell-killing curve with a large enough effect; inconclusive = small, poorly fitted or top-dose-only effect; inactive = no such curve, though single readings can be large or run the other way.
Tick one outcome: 1 (yes) (active), 0 (no) (inactive)

Sample answers from the record:
# MOLECULE, QUALITATIVE_LABEL
records = [
    ("Oc1cc(-c2nc(-c3ccccc3)[nH]c2-c2ccncc2)ccc1Cl", "1 (yes)"),
    ("c1cc(N[C@@H]2CCNC2)nc(-c2cnc3ccc(-c4cn[nH]c4)cn23)c1", "1 (yes)"),
    ("COc1cc(C(=O)NC2CCN(C)CC2)ccc1Nc1ncc2c(n1)N(C1CCCC1)CCC(=O)N2C(C)C", "1 (yes)"),
    ("C[C@H](NC(=O)[C@@H](O)c1cc(F)cc(F)c1)C(=O)N[C@@H]1C(=O)N(C)c2ccccc2-c2ccccc21", "0 (no)"),
    ("C[C@H](CCC(=O)O)[C@H]1CCC2C3C[C@H](O)[C@@H]4C[C@H](O)CC[C@]4(C)C3CC[C@@]21C (stereo partly drawn)", "0 (no)"),
]

Check the results log: what was the call for `N=c1ccn2c(n1)O[C@H]1[C@@H](O)[C@@H](CO)O[C@H]12` ?
1 (yes)

Outcome? `O=C(CN1C(=O)C2(CCCC2)NC[C@H]1c1cc(F)cc(F)c1)Nc1ccc2c(c1)C[C@@]1(C2)C(=O)Nc2ncccc21`
0 (no)

Could you please tell me the result logged for CN1[C@H]2CC(OC(=O)[C@@H](CO)c3ccccc3)C[C@H]1[C@H]1O[C@H]12 (stereo partly drawn) in this assay?
0 (no)

###

- EXPERIMENTAL_DETAILS: Quantitative High-Throughput drug screen in 47 multiple myeloma cell lines against the NCATS MIPE library collection: JIM1_ECACC cell viability assay (AID 1918964; further: potency means the concentration at half of the fitted maximal effect)
- EXPERIMENTAL_SETUP: JIM1 myeloma viability, CellTiter-Glo ATP luminescence, 48 h; series mostly up to 45.8 µM
Records with an inconclusive call do not appear. Activity calls are given as the source filed them. The call rests on the fitted dose curve; in most records, active means well fitted cell-killing curve with a large enough effect; inconclusive means small, poorly fitted or top-dose-only effect, or effect the other way; inactive means no such curve, though single readings can be large or run the other way.

# CPD_SMILES, Potency
measured = [
    ("C[C@H](O)[C@@H]1C(=O)N2C(C(=O)O)=C(S[C@@H]3CN[C@H](CNS(N)(=O)=O)C3)[C@@H](C)[C@@H]12", "inactive"),
    ("COc1cc(C)c(C=CC(C)=CC=CC(C)=CC(=O)O)c(C)c1C", "inactive"),
    ("CC(=O)O[C@]1(C(C)=O)CC[C@H]2[C@@H]3C=C(C)C4=CC(=O)CC[C@]4(C)[C@@H]3CC[C@@]21C", "10.5 µM (active)"),
    ("C#C[C@]1(O)CC[C@@H]2[C@@H]3CCC4=CC(=O)CC[C@@H]4[C@H]3CC[C@@]21CC", "inactive"),
]

###

- EXPERIMENTAL_DETAILS: Quantitative High-Throughput drug screen in 47 multiple myeloma cell lines against the NCATS MIPE library collection: PE2_PLB cell viability assay (AID 1919869); further: nearly all actives have a fitted effect of over 35% in size
- EXPERIMENTAL_SETUP: PE2_PLB myeloma cells viability, ATP luminescence, 48 h; series mostly up to 45.8 µM
Results filed as inconclusive are left out. Activity calls are given as the source filed them. Calls follow the shape of the dose curve; as a rule, active = well fitted cell-killing curve with a large enough effect; inconclusive = small, poorly fitted or top-dose-only effect, or effect the other way; inactive = no such curve, though single readings can be large or run the other way.
Use one of these outcomes when replying: active, inactive

Here are 5 compounds together with their reported answers.
# COMPOUND, QUALITATIVE_LABEL
rows = [
    ("CS(=O)(=O)N1CCc2c(-c3cnc(N)nc3)nc(N3CCOCC3)nc21", "active"),
    ("Nc1nc(=O)n([C@H]2CSC(CO)O2)cc1F (some centres not stated)", "inactive"),
    ("O=C(Nc1nnc(-c2ccco2)o1)c1cc(-c2ccccc2)nc2ccccc12", "active"),
    ("O=C(O)[C@H](CC(=O)N1C[C@@H]2CCCC[C@H]2C1)Cc1ccccc1", "inactive"),
    ("O=C(C=CC=Cc1ccc2c(c1)OCO2)N1CCCCC1", "inactive"),
]

Tell me the recorded outcome of this test for `C=C(C)[C@@H]1CC[C@]2(C)CC[C@]3(C)[C@H](CC[C@@H]4[C@@]5(C)CC[C@H](O)C(C)(C)[C@H]5CC[C@]43C)[C@@H]12` .
inactive

Fill in: this test's call for `N#Cc1c(C2CCNCC2)cc(-c2c(O)cccc2OCC2CC2)nc1N` is ___
active
